- measured-on: subtilisin
- condition-set: approximate values; Ki=[E]*[I]/[EI]; read-out: inhibition constant (Ki)
- Excerpt: Typically a safe and effective amount will range from 0.00005% to 5%, preferably from 0.005% to 2%, more preferably from 0.025% to 1%. Ki values reported herein are approximate values and may be measured, e.g. using the method set forth in “Kinetcs of Subtilisin and Thiolsubtilisin“, Philipp, M. and Bender, M. L., Molecular & Cellular Biochemistry, vol. 51, pages 5-32 (1983). […]
readout-name: Ki (µM)
Form entry: value (µM) — number only.

Record request: Ki value, item CCCCB(O)O
7200

Record request: Ki value, item CC(=O)N[C@@H](CC(C)C)C(=O)N[C@@H](CC(C)C)C(=O)N[C@H](C=O)CCCNC(=N)N [leupeptide]
230

Record request: Ki value, item OB(O)c1ccccc1
160
